Overview of reported Ki across a group of molecules:
Test System: IMP-1 (Serratia marcescens)
Measurement Description: Enzymatic assay for determination of inhibition constants, reporter substrate method, purified IMP-1
Condition Summary: isolated MBL, competitive inhibition model

Past entries and their recorded results:
S=c1[nH]nc(-c2ccccc2)n1CCSCc1ccccc1    > 100 µM
O=C(O)C(CCCn1c(-c2ccccc2)n[nH]c1=S)N(Cc1c[nH]cn1)Cc1c[nH]cn1 (centres unmarked)    > 100 µM
O=C(O)CCCn1c(-c2ccc3ccccc3c2)n[nH]c1=S    > 100 µM
CCCCn1c(-c2ccccc2)n[nH]c1=S    10 to 100 µM

Consider the additional molecule presented here.
Give Ki for "O=C(O)c1ccccc1CCn1c(-c2ccc[nH]2)n[nH]c1=S" tested on IMP-1 (Serratia marcescens).
> 100 µM

----------
Test System: IMP-1 (Serratia marcescens, UniProt P52699)
Sequence (P52699 19-246, looked up, species assumed): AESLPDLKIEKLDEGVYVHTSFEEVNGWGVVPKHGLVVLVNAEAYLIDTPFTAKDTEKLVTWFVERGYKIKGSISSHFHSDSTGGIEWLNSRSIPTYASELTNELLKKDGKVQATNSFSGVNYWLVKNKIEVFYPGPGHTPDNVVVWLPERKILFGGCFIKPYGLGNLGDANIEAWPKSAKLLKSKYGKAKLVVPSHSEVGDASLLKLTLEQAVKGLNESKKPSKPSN
Measurement Description: Enzymatic assay for determination of inhibition constants, reporter substrate method, purified IMP-1;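 further: purified IMP-1 (1-70 nM) hydrolysing a reporter substrate, initial rates followed as absorbance change at 260, 300 or 482 nm in 50 mM HEPES pH 7.5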
Format: biochemical
Condition Summary: at 100 μM (maximal tested concentration)
Parameter Measured: % inhibition IMP-1 (% at 100 μM)
// units = % at 100 μM; emit number, no label

O=[N+]([O-])c1ccc(CSCCn2c(-c3ccccc3)n[nH]c2=S)cc1    92
Cn1cccc1-c1n[nH]c(=S)n1CCSCc1ccccc1    90
S=c1[nH]nc(-c2ccccc2)n1CCSCCc1ccccc1    89
S=c1[nH]nc(-c2ccccc2)n1CCSc1ccccc1    84
Fc1ccccc1CSCCn1c(-c2ccccc2)n[nH]c1=S    97

Specify reported % inhibition IMP-1 for the compound shown: "Fc1ccc(CSCCn2c(-c3ccccc3)n[nH]c2=S)cc1"
96

Give me measured % inhibition IMP-1, please, for this compound: O=C(O)C(CSCCn1c(-c2cccc(-c3ccccc3)c2)n[nH]c1=S)c1ccccc1 (stereo not shown)
56

State its % inhibition IMP-1: "O=[N+]([O-])c1ccc(O)c(CSCCn2c(-c3ccccc3)n[nH]c2=S)c1"
62

Look up and state reported % inhibition IMP-1 for "O=C(O)CCSCCn1c(-c2ccccc2)n[nH]c1=S"
65

State its % inhibition IMP-1: "O=[N+]([O-])c1ccccc1CSCCn1c(-c2ccccc2)n[nH]c1=S"
72

----------
Readings of pKi for the listed molecules
Test System: VIM-1 (Pseudomonas aeruginosa, UniProt A0A0F7KYQ8)
Measurement Description: Enzymatic assay for determination of inhibition constants, reporter substrate method, purified VIM-1;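 further: initial hydrolysis rates of a reporter β-lactam (imipenem, meropenem, cefotaxime or nitrocefin) followed by absorbance change, purified enzyme at 1–70 nM in 50 mM HEPES pH 7.5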
Condition Summary: isolated MBL, competitive inhibition model
pKi: −log10 of the molar value.

COc1ccc(O)c(-c2n[nH]c(=S)n2CCc2ccccc2)c1    5.00 to 6.00
O=C(O)c1ccccc1CCn1c(-c2ccc(OCc3ccccc3)cc2)n[nH]c1=S    < 4.00
O=C(O)c1ccccc1CCn1c(-c2cccc(-c3ccccc3)c2)n[nH]c1=S    5.00 to 6.00
O=C(O)c1ccccc1CCn1c(-c2cccc(OCCN3CCOCC3)c2)n[nH]c1=S    5.00 to 6.00
Oc1ccc(CCn2c(-c3ccccc3)n[nH]c2=S)cc1    5.00 to 6.00

Report pKi from VIM-1 (Pseudomonas aeruginosa, UniProt A0A0F7KYQ8) testing of "Oc1ccc(CCn2c(-c3ccccc3-c3ccccc3)n[nH]c2=S)c(O)c1"
< 4.00

Give pKi only, for "O=C(O)c1ccccc1CNn1c(-c2ccc3ccccc3c2)n[nH]c1=S" , using VIM-1 (Pseudomonas aeruginosa, UniProt A0A0F7KYQ8) data.
< 4.00

Print VIM-1 (Pseudomonas aeruginosa, UniProt A0A0F7KYQ8) pKi for "Fc1ccc(CSCCn2c(-c3ccccc3)n[nH]c2=S)c(F)c1" .
5.00 to 6.00

Give pKi for "Cc1ccccc1-c1n[nH]c(=S)n1CCSCc1ccccc1" tested on VIM-1 (Pseudomonas aeruginosa, UniProt A0A0F7KYQ8).
> 6.00

Identify measured pKi obtained with VIM-1 (Pseudomonas aeruginosa, UniProt A0A0F7KYQ8) for "Cc1ccccc1-c1n[nH]c(=S)n1CCc1ccccc1C(=O)O" .
5.00 to 6.00

GET pKi where system = VIM-1 (Pseudomonas aeruginosa, UniProt A0A0F7KYQ8) and item = "O=C(O)CCSCCn1c(-c2ccccc2)n[nH]c1=S"
5.00 to 6.00

Recall the reported pKi of "COc1ccc(O)c(-c2n[nH]c(=S)n2CCCC(=O)O)c1" when tested on VIM-1 (Pseudomonas aeruginosa, UniProt A0A0F7KYQ8).
< 4.00

Name the recorded pKi of O=C(O)CC(Cn1c(-c2ccccc2)n[nH]c1=S)c1ccccc1 (stereo not shown) , assay system VIM-1 (Pseudomonas aeruginosa, UniProt A0A0F7KYQ8).
< 4.00

Find pKi for "O=C(O)CCCn1c(-c2ccccc2)n[nH]c1=S" on VIM-1 (Pseudomonas aeruginosa, UniProt A0A0F7KYQ8) and write it down.
< 4.00
